Each item that follows carries a reported IC50.
- system_tested: cdk2/A (Homo sapiens, UniProt P24941)
- protocol_summary: cdk2/A kinase assay
- condition_description: 32P incorporation into retinoblastoma, 25° C., 15 minutes; read-out: Cdk2A IC50
assay_metric: IC50 (µM)

molecule_smiles | assay_metric | measurement_units | endpoint_result
COc1ccc2cnc(Nc3ccc(N4CCN(C(=O)OC(C)(C)C)CC4)cc3)nc2c1C(C)C | IC50 | µM | 1.62
COc1ccc2cnc(Nc3ccccc3)nc2c1C(C)C | IC50 | µM | 0.253
COc1ccc2cnc(Nc3ccc(N4CCOCC4)cc3)nc2c1C1CCCC1 | IC50 | µM | 0.383
COc1ccc2cnc(Nc3ccc(N4CCCCC4)cc3)nc2c1C1CCCC1 | IC50 | µM | 0.384
COc1ccc2cnc(Nc3ccc(N4CCOCC4)c(F)c3)nc2c1C(C)C | IC50 | µM | 0.451

----------
- system_tested: cdk4/D (Homo sapiens, UniProt P11802)
- Sequence (P11802 whole entry, species assumed): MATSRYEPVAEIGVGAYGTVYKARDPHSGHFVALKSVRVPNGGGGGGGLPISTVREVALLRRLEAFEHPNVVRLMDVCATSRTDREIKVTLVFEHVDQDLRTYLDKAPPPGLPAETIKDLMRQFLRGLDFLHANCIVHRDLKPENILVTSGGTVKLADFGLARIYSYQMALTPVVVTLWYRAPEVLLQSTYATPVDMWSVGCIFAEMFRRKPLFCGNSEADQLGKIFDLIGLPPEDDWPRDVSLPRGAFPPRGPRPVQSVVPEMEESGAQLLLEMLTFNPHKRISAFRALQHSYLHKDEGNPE
- Sequence (P24385 whole entry partner, species assumed): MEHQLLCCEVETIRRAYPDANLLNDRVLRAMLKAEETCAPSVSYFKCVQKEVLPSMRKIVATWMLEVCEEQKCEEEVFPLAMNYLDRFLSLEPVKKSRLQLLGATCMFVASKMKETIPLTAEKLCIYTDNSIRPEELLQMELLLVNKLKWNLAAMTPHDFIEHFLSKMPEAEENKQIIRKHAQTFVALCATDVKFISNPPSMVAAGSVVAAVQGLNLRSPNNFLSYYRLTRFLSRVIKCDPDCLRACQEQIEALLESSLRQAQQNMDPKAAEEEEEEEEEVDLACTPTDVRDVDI
- protocol_summary: Cyclin-Dependent Kinase 4 (cdk4) Assay
- Format: biochemical
This section presents compounds with their documented IC50 values.

compound | IC50
COc1ccc2cnc(Nc3ccc(N4CCOCC4)cc3)nc2c1C1CCCC1 [Example 44] | 0.018 µM
COc1ccc2cnc(Nc3ccc(N4CCN(C(C)=O)CC4)cc3)nc2c1C(C)C [Example 33] | 0.025 µM
COc1ccc2cnc(Nc3ccc(N4CCOCC4)cc3)nc2c1C(C)C [Example 39] | 0.052 µM
COc1ccc2cnc(Nc3ccc(N4CCN(C(=O)CN)CC4)cc3)nc2c1C1CCCC1 [Example 40] | 0.002 µM
COc1ccc2cnc(Nc3ccc(N4CCNCC4)cc3)nc2c1C(C)C [Example 34] | 0.016 µM
COc1ccc2cnc(Nc3ccccc3)nc2c1C(C)C [Example 19] | 0.125 µM
COc1ccc2cnc(Nc3ccc(N4CCCCC4)cc3)nc2c1C1CCCC1 [Example 23] | 0.011 µM
COc1ccc2cnc(Nc3ccc(N4CCC(N)C4)cc3)nc2c1C(C)C (stereo not shown) [Example 37] | 0.011 µM
COc1ccc2cnc(Nc3ccc(N4CCCC4)cc3)nc2c1C(C)C [Example 22] | 0.56 µM
COc1ccc2cnc(Nc3ccc(N4CCCCC4)cc3)nc2c1C(C)C [Example 21] | 0.052 µM
COc1ccc2cnc(Nc3ccc(N4CCN(C(=O)CN)CC4)cc3)nc2c1C(C)C [Example 35] | 0.01 µM
COc1ccc2cnc(Nc3ccc(N4CCNCC4)c(F)c3)nc2c1C1CCCC1 [Example 50] | 0.004 µM
CC(C)c1c(O)ccc2cnc(Nc3ccccc3)nc12 [Example 29] | 0.325 µM
COc1ccc2cnc(Nc3ccc(N4CCN(C(C)=O)CC4)cc3)nc2c1C1CCCC1 [Example 20] | 0.002 µM
COc1ccc2cnc(Nc3ccc(N4CCCC4)cc3)nc2c1C1CCCC1 [Example 24] | 1.75 µM
COc1ccc2cnc(Nc3ccc(N4CCC(N)C4)cc3)nc2c1C1CCCC1 (stereo not shown) [Example 41] | 0.116 µM

----------
- system_tested: cdk2/cyclinE (Homo sapiens)
- protocol_summary: cdk2/cyclinE kinase assay
- Type: biochemical
- condition_description: 32P incorporation into retinoblastoma, 25° C., 15 minutes; read-out: Cdk2E IC50
pIC50: −log10 of the molar value.
Measured pIC50, listed per entry for reference.

molecule_smiles | result_comparator | pIC50
COc1ccc2cnc(Nc3ccc(N4CCCCC4)cc3)nc2c1C1CCCC1 | < | 5.30
COc1ccc2cnc(Nc3ccc(N4CCCCC4)cc3)nc2c1C(C)C | = | 5.51
COc1ccc2cnc(Nc3ccc(N4CCCC4)cc3)nc2c1C(C)C | < | 5.30
COc1ccc2cnc(Nc3ccc(N4CCN(C(=O)OC(C)(C)C)CC4)cc3)nc2c1C(C)C | = | 5.00
COc1ccc2cnc(Nc3ccc(N4CCN(C(C)=O)CC4)cc3)nc2c1C1CCCC1 | = | 6.58
COc1ccc2cnc(Nc3ccc(N4CCN(C(=O)CN)CC4)cc3)nc2c1C(C)C | = | 5.96
COc1ccc2cnc(Nc3ccc(F)c(C)c3)nc2c1C1CCCC1 | = | 5.66
COc1ccc2cnc(Nc3ccc(N4CCNCC4)c(F)c3)nc2c1C1CCCC1 | = | 6.52
COc1ccc2cnc(Nc3ccc(N4CCOCC4)cc3)nc2c1C(C)C | = | 5.36

----------
- system_tested: cdk2/cyclinE (Homo sapiens)
- protocol_summary: cdk2/cyclinE kinase assay
- condition_description: 32P incorporation into retinoblastoma, 25° C., 15 minutes; read-out: Cdk2E IC50
pIC50: −log10 of the molar value.
Attribute: pIC50
assay_metric: pIC50

molecule | result_comparator | endpoint_result
COc1ccc2cnc(Nc3ccc(N4CCN(C(=O)CN)CC4)cc3)nc2c1C1CCCC1 [Example 40] | = | 6.35
COc1ccc2cnc(Nc3ccc(N4CCC(N)C4)cc3)nc2c1C(C)C (centres unmarked) [Example 37] | = | 5.59
COc1ccc2cnc(Nc3ccc(F)c(C)c3)nc2c1C(C)C [Example 46] | = | 5.92
COc1ccc2cnc(Nc3ccc(N4CCOCC4)c(F)c3)nc2c1C1CCCC1 [Example 43] | < | 5.30
COc1ccc2cnc(Nc3ccc(N4CCNCC4)cc3)nc2c1C(C)C [Example 34] | = | 5.92

----------
Quick list: log10 IC50 per entry.
- system_tested: cdc2/cyclinB (Homo sapiens)
- Sequence (P06493 whole entry, species assumed): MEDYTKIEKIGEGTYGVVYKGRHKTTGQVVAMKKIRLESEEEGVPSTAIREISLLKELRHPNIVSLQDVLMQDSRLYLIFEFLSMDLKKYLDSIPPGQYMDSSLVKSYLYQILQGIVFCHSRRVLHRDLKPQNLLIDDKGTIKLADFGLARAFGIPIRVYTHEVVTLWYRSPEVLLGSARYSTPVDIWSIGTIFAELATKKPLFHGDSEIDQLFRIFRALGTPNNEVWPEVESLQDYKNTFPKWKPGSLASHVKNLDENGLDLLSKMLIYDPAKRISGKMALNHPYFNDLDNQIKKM
- Sequence (P14635 whole entry partner, species assumed): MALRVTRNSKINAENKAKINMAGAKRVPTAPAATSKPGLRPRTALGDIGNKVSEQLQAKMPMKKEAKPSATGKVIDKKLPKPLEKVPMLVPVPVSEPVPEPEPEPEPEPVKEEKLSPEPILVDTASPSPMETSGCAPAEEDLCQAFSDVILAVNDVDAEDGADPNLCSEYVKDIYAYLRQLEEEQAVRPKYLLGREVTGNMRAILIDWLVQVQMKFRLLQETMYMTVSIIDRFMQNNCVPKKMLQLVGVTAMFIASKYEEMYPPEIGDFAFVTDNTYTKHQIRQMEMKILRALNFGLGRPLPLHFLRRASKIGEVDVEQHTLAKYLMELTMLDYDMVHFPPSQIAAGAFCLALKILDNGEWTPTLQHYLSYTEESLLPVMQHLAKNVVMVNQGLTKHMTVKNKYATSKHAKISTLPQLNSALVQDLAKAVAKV
- protocol_summary: cdc2/cyclinB kinase assay (Table 1, CdkB)
- condition_description: 32P incorporation into retinoblastoma, 25° C., 15 minutes
assay_metric: log10 IC50 (log10 of the value in nM)

compound | log10 IC50
COc1ccc2cnc(Nc3ccc(N4CCOCC4)cc3)nc2c1C(C)C [Example 39] | 3.29
COc1ccc2cnc(Nc3ccc(F)c(C)c3)nc2c1C1CCCC1 [Example 48] | 3.07
COc1ccc2cnc(Nc3ccc(N4CCNCC4)cc3)nc2c1C1CCCC1 [Example 27] | 2.12
COc1ccc2cnc(Nc3ccc(N4CCN(C(=O)OC(C)(C)C)CC4)cc3)nc2c1C1CCCC1 [Example 26] | 3.62
CC(C)c1c(O)ccc2cnc(Nc3ccccc3)nc12 [Example 29] | 2.91
COc1ccc2cnc(Nc3ccc(N4CCC(N)C4)cc3)nc2c1C(C)C (stereo not drawn) [Example 37] | 3.11
COc1ccc2cnc(Nc3ccc(N4CCOCC4)cc3)nc2c1C1CCCC1 [Example 44] | 3.20
